Overview of recorded Thrombin Time: concentration required to prolong coagulation by 2fold for various molecules
Tested On: bovine thrombin (Bos taurus)
Construct: 25 μl of bovine thrombin solution (0.21 mg/ml of thrombostat powder); purchased thrombostat powder
Test Protocol: Thrombin time in buffer (fibrinogen instead of plasma)
Type: biochemical
Measurement Conditions: Buffer (pH 7.5)

CC(C)(C)OC(=O)NC(C(=O)N1CCC[C@H]1C(=O)N[C@H](C=O)CCCNC(=N)N)c1cccc2ccccc12 (mixture of isomers) [Boc-DL-1-naphthylglycyl] ... 112 ng/mL
CO[C@@H](C(=O)N1CCC[C@H]1C(=O)N[C@H](C=O)CCCNC(=N)N)c1ccccc1 [(R)-α-Methoxyphenylacetyl] ... 173 ng/mL

// next item, Thrombin Time: concentration required to prolong coagulation by 2fold requested
Task: Provide only the value of recorded Thrombin Time: concentration required to prolong coagulation by 2fold for CC(=O)O.CC(=O)O.CC(C)(C)OC(=O)N[C@@H](C(=O)N1CCC[C@H]1C(=O)N[C@H](C=O)CCCNC(=N)N)c1cccc2ccccc12 [Boc-D-1-naphthylglycyl]
Result: 105 ng/mL
